Experiment: Genotoxicity in human HTLA-230 cells assessed as gamma-H2AX production at 100 uM after 24 hrs by Western blot analysis
Type: toxicity, cell-based
Settings: htla-230, 24 h
reportedMetric: Activity

- compound: "CC1CN(C(=O)CCO/N=C/c2ccc(OC(F)F)c(OC3CCCC3)c2)CC(C)O1 (stereo not given)"
  reportedMetric: "Activity"
  assayValue: "Non-toxic"
- compound: "COc1cc([C@@H]2c3cc4c(cc3[C@@H](O[C@@H]3O[C@@H]5CO[C@@H](C)O[C@H]5[C@H](O)[C@H]3O)[C@H]3COC(=O)[C@H]23)OCO4)cc(OC)c1O [ETOPOSIDE]"
  reportedMetric: "Activity"
  assayValue: "Toxic"
- compound: "CC1CN(C(=O)CO/N=C/c2ccc(OC(F)F)c(OC3CCCC3)c2)CC(C)O1 (stereo not given)"
  reportedMetric: "Activity"
  assayValue: "Non-toxic"
- compound: "COc1ccc(/C=N/OCC(=O)N2CC(C)OC(C)C2)cc1OC1CCCC1 (stereo not given)"
  reportedMetric: "Activity"
  assayValue: "Non-toxic"
- compound: "OC(CO/N=C/c1ccc(OC(F)F)c(OC2CCCC2)c1)CN1CCOCC1 (stereo not given)"
  reportedMetric: "Activity"
  assayValue: "Non-toxic"

---

Experiment: Plasma concentration in BALB/c mouse at 10 mg/kg, sc measured at 5 hrs by LC-MS/MS analysis
Type: ADME, organism-based

- compound: "COc1ccc(/C=N/OCC(=O)N2CC(C)OC(C)C2)cc1OC1CCCC1 (configuration not stated)"
  concentration at 5 h [ng/mL]: 10.4
- compound: "CC1CN(C(=O)CO/N=C/c2ccc(OC(F)F)c(OC3CCCC3)c2)CC(C)O1 (configuration not stated)"
  concentration at 5 h [ng/mL]: 67.2

---

Assay: Tmax in BALB/c mouse plasma at 10 mg/kg, sc by LC-MS/MS analysis
Type: ADME, organism-based
reportedMetric: Tmax (min)

- molecule: "COc1ccc(/C=N/OCC(=O)N2CC(C)OC(C)C2)cc1OC1CCCC1 (configuration not stated)"
  assayValue: 10.2
- molecule: "CC1CN(C(=O)CO/N=C/c2ccc(OC(F)F)c(OC3CCCC3)c2)CC(C)O1 (configuration not stated)"
  assayValue: 10.2

---

Test system: Mus musculus
Test: Toxicity in mouse assessed as sedative effect by measuring prolongation of immobility time at 10 mg/kg, po measured over 60 mins by open-field test
Type: organism-based
Settings: in vivo, 1 h

- compound: "COc1ccc(/C=N/OCC(=O)N2CC(C)OC(C)C2)cc1OC1CCCC1 (stereo unspecified)"
  target: "Mus musculus"
  Activity: "Non-toxic"
- compound: "CN1C(=O)CN=C(c2ccccc2)c2cc(Cl)ccc21"
  target: "Mus musculus"
  Activity: "Toxic"
- compound: "COc1ccc(/C=N/OCC(O)CN2CC(C)OC(C)C2)cc1OC1CCCC1 (stereo unspecified)"
  target: "Mus musculus"
  Activity: "Non-toxic"
- compound: "CC1CN(C(=O)CO/N=C/c2ccc(OC(F)F)c(OC3CCCC3)c2)CC(C)O1 (stereo unspecified)"
  target: "Mus musculus"
  Activity: "Non-toxic"
- compound: "CC1CN(CC(O)CO/N=C/c2ccc(OC(F)F)c(OC3CCCC3)c2)CC(C)O1 (stereo unspecified)"
  target: "Mus musculus"
  Activity: "Toxic"
- compound: "COc1ccc(C2CNC(=O)C2)cc1OC1CCCC1 (stereo unspecified)"
  target: "Mus musculus"
  Activity: "Toxic"

---

Overview of reported concentration at 3 h across a group of compounds:
Test: Plasma concentration in BALB/c mouse at 10 mg/kg, sc measured at 3 hrs by LC-MS/MS analysis
Assay type: ADME, organism-based
reportedMetric: concentration at 3 h (ng/mL)

- compound: "COc1ccc(/C=N/OCC(=O)N2CC(C)OC(C)C2)cc1OC1CCCC1 (configuration not stated)"
  readoutUnits: "ng/mL"
  assayValue: 2.18
- compound: "CC1CN(C(=O)CO/N=C/c2ccc(OC(F)F)c(OC3CCCC3)c2)CC(C)O1 (configuration not stated)"
  readoutUnits: "ng/mL"
  assayValue: 11.6

---

Assay: Cmax in BALB/c mouse brain at 10 mg/kg, sc by LC-MS/MS analysis
Format: ADME, organism-based
Set-up: dose 10 mg/kg, route subcutaneous

- compound: "CC1CN(C(=O)CO/N=C/c2ccc(OC(F)F)c(OC3CCCC3)c2)CC(C)O1 (configuration not stated)"
  readoutUnits: "ng/g"
  Cmax: 1570
- compound: "COc1ccc(/C=N/OCC(=O)N2CC(C)OC(C)C2)cc1OC1CCCC1 (configuration not stated)"
  readoutUnits: "ng/g"
  Cmax: 936

---

Assay: Ratio of AUC (0 to t) in BALB/c mouse brain to AUC (0 to t) in BALB/c mouse plasma at 10 mg/kg, sc by LC-MS/MS analysis
Format: ADME, organism-based
Settings: read-out: Ratio AUC
Overview of reported Kp across a group of molecules:

- molecule: "COc1ccc(/C=N/OCC(=O)N2CC(C)OC(C)C2)cc1OC1CCCC1 (configuration not stated)"
  Kp: 0.358
- molecule: "CC1CN(C(=O)CO/N=C/c2ccc(OC(F)F)c(OC3CCCC3)c2)CC(C)O1 (configuration not stated)"
  Kp: 0.429

---

Test: Drug uptake in BALB/c mouse brain at 10 mg/kg, sc measured at 0.33 hrs by LC-MS/MS analysis
Format: ADME, organism-based
Conditions: read-out: Drug uptake
Overview of reported concentration at 0.33 h across a group of compounds:

- compound: "CC1CN(C(=O)CO/N=C/c2ccc(OC(F)F)c(OC3CCCC3)c2)CC(C)O1 (configuration not stated)"
  concentration at 0.33 h (ng/g): 790
- compound: "COc1ccc(/C=N/OCC(=O)N2CC(C)OC(C)C2)cc1OC1CCCC1 (configuration not stated)"
  concentration at 0.33 h (ng/g): 396

---

Overview of reported inhibition across a group of molecules:
Target: 3',5'-cyclic-AMP phosphodiesterase 4A (Homo sapiens)
Assay: Inhibition of human recombinant PDE4A4 expressed in baculoviral system using cAMP as substrate at 10 uM by fluorescence polarization assay relative to control
reportedMetric: inhibition (%)

- molecule: "CC1CN(CC(O)CO/N=C/c2ccc(OC(F)F)c(OC3CCCC3)c2)CC(C)O1 (stereo not drawn)"
  readoutUnits: "%"
  assayValue: 68
- molecule: "OC(CO/N=C/c1ccc(OC(F)F)c(OC2CCCC2)c1)CN1CCOCC1 (stereo not drawn)"
  readoutUnits: "%"
  assayValue: 41
- molecule: "CC1CN(NCC(O)CO/N=C/c2ccc(OC(F)F)c(OC3CCCC3)c2)CC(C)O1 (stereo not drawn)"
  readoutUnits: "%"
  assayValue: 58
- molecule: "CC1CN(C(=O)CO/N=C/c2ccc(OC(F)F)c(OC3CCCC3)c2)CC(C)O1 (stereo not drawn)"
  readoutUnits: "%"
  assayValue: 32
- molecule: "OC1CCN(CC(O)CO/N=C/c2ccc(OC(F)F)c(OC3CCCC3)c2)CC1 (stereo not drawn)"
  readoutUnits: "%"
  assayValue: 15
- molecule: "CC1CN(C(=O)CCO/N=C/c2ccc(OC(F)F)c(OC3CCCC3)c2)CC(C)O1 (stereo not drawn)"
  readoutUnits: "%"
  assayValue: 34
- molecule: "O=C(CO/N=C/c1ccc(OC(F)F)c(OC2CCCC2)c1)N1CCC(O)CC1"
  readoutUnits: "%"
  assayValue: 28
- molecule: "O=C(CO/N=C/c1ccc(OC(F)F)c(OC2CCCC2)c1)N1CCOCC1"
  readoutUnits: "%"
  assayValue: 36

---

Assay: Elimination half life in BALB/c mouse plasma at 10 mg/kg, sc by LC-MS/MS analysis
Assay type: ADME, organism-based
Conditions: read-out: beta t1/2 (converted)
Overview of reported half-life across a group of compounds:

- compound: "CC1CN(C(=O)CO/N=C/c2ccc(OC(F)F)c(OC3CCCC3)c2)CC(C)O1 (configuration not stated)"
  half-life (min): 42
- compound: "COc1ccc(/C=N/OCC(=O)N2CC(C)OC(C)C2)cc1OC1CCCC1 (configuration not stated)"
  half-life (min): 49.2

---

Assay: Drug uptake in BALB/c mouse brain at 10 mg/kg, sc measured at 0.17 hrs by LC-MS/MS analysis
Assay type: ADME, organism-based
Settings: read-out: Drug uptake

- compound: "CC1CN(C(=O)CO/N=C/c2ccc(OC(F)F)c(OC3CCCC3)c2)CC(C)O1 (configuration not stated)"
  readoutUnits: "ng/g"
  concentration at 0.17 h: 936
- compound: "COc1ccc(/C=N/OCC(=O)N2CC(C)OC(C)C2)cc1OC1CCCC1 (configuration not stated)"
  readoutUnits: "ng/g"
  concentration at 0.17 h: 1570

---

Overview of reported concentration at 1 h across a group of compounds:
Assay: Drug uptake in BALB/c mouse brain at 10 mg/kg, sc measured at 1 hr by LC-MS/MS analysis
Type: ADME, organism-based
Details: read-out: Drug uptake

- compound: "COc1ccc(/C=N/OCC(=O)N2CC(C)OC(C)C2)cc1OC1CCCC1 (configuration not stated)"
  concentration at 1 h, ng/g: 3.29
- compound: "CC1CN(C(=O)CO/N=C/c2ccc(OC(F)F)c(OC3CCCC3)c2)CC(C)O1 (configuration not stated)"
  concentration at 1 h, ng/g: 303
